Test: AUC(0 to 24 hrs) in Sprague-Dawley rat at 100 mg/kg, po
Format: ADME, organism-based
Conditions: in vivo
metric: AUC(0-t) (ng·h/mL)
Kindly answer with a numeric value in ng·h/mL, unit omitted.

Asked: Could you tell me which AUC(0-t) is on file for CN1CC(F)(F)CCN(C)[C@H]2CC[C@@H](C2)Nc2ncc(C(F)(F)F)c(n2)-c2c[nH]c3c(P(C)(C)=O)c(ccc23)C1=O ?
Given back: 14200

###

Experiment: Volume of distribution at steady state in dog at 0.2 mg/kg, iv
Type: ADME, organism-based, Canis lupus familiaris
Conditions: in vivo, read-out: Vdss
metric: Vd (L/kg)
Kindly answer with a numeric value in L/kg, unit omitted.

Asked: Could you tell me which Vd is on file for CN1CC(F)(F)CCN(C)[C@H]2CC[C@@H](C2)Nc2ncc(C(F)(F)F)c(n2)-c2c[nH]c3c(P(C)(C)=O)c(ccc23)C1=O ?
Given back: 0.24
